experimental-protocol: NCI Yeast Anticancer Drug Screen. Data for the sgs1 mgt1 strain (AID 161);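 note: 0% = growth of cultures given vehicle only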
condition-summary: S. cerevisiae sgs1 mgt1 strain, at 50.0 µM, hits give high values
Protocol: Growth inhibition of yeast strains with defined genetic alterations is measured as a screen for potential anti-cancer activity. Selected strains with alterations in DNA damage repair or cell cycle control were exposed to compounds and growth inhibition was measured relative to vehicle treated controls. The strain used in this assay is sgs1 mgt1
This is part of a sample that, as a whole, favours compounds with a hit. Of some 79,000 tested, about 15% had one in any assay.
Overview of reported growth inhibition across a group of molecules:
Give the value, in units of %, as a plain number.

Past entries and their recorded results:
[[record]]
molecule = "Nc1nc(SCCCc2ccccc2)c2[nH]cnc2n1"
result_value = -3.4

[[record]]
molecule = "COC(=O)CCC(CCc1ccccc1)(C(C)=O)C(C)=O"
result_value = -16.5

[[record]]
molecule = "NC(=O)C(O)C(O)CO (stereo not drawn)"
result_value = -15.2


The reported growth inhibition of the molecule `O=C1OC(=O)C2=C1CCC2` was -20.4

Note to self: growth inhibition recorded for `Cc1cc2c(c(O)c1-c1c(C)cc(O)c3c1C(=O)C=CC3=O)C(=O)C=CC2=O` was -8.5

The value of growth inhibition measured for the molecule `NNC(=O)C(=O)NN` turned out to be -1.85

molecule `CCOC(=O)c1sc(SC)nc1NC(=O)c1ccc([N+](=O)[O-])cc1` , growth inhibition observed: -53

Sure, the documented growth inhibition for `CC1(C)C(CBr)=[N+]([O-])C(C)(C)N1O` is -15.2

// field: growth inhibition; key: `O=C(OCc1ccc(Cl)cc1Cl)OCc1ccc(Cl)cc1Cl` ; value = -3.7

Consider `CCCCCCCCS(=O)(=O)N(C)C` . Its measured growth inhibition is 0.4

For this molecule ( O=C1c2ccccc2C(=O)N1CC1(C(=O)O)NCCS1(=O)=O (stereo not drawn) ), measured growth inhibition is -22.3

// growth inhibition lookup, molecule = CCNC(=O)C(C(=O)OCCN(CC)CC)c1ccccc1 (stereo not drawn) , result: -3.3

Summary for this molecule, `CCCCCCCCCCCCCCCCCCCCCCCCCCCCCCCCCCCCSC(=N)N` : growth inhibition is 3.8

---

experimental-protocol: NCI Yeast Anticancer Drug Screen. Data for the bub3 strain (AID 167)
condition-summary: S. cerevisiae bub3 mutant strain, at 50.0 µM, hits give high values
About 79,000 compounds went through this panel and 15% of them were active in at least one assay; those are over-represented in the sample as a whole.
A collection of molecules and their measured growth inhibition
Write the number in % without appending the unit.

Worked examples, 5 molecules total:
[[record]]
molecule = "O=C1CC2CCCCC2CC1c1ccccc1 (stereo not drawn)"
value_type = "growth inhibition"
result_units = "%"
result_value = -22.5

[[record]]
molecule = "C[n+]1ccccc1/C=C/C=C/c1ccccc1"
value_type = "growth inhibition"
result_units = "%"
result_value = -6.1

[[record]]
molecule = "Cc1cc(O)c(C(C)C)cc1S(=O)(=O)O"
value_type = "growth inhibition"
result_units = "%"
result_value = 3.25

[[record]]
molecule = "O=C(c1ccc(Cl)cc1)c1cccc(Cl)c1"
value_type = "growth inhibition"
result_units = "%"
result_value = -10

[[record]]
molecule = "COc1ccc(C(=O)O[C@@H]2CCN3CC[C@H](C)[C@H]23)cc1"
value_type = "growth inhibition"
result_units = "%"
result_value = -6.35


Now look at this entry.
Recorded result, `CCCC=Nc1ccccc1` , growth inhibition: 10.8
